pKi: −log10 of the molar value.
Here is a set of compounds with reported pKi for Adenosine receptor A2b (Homo sapiens), compiled from the literature.
READOUT: pKi

# SMILES DATA, TARGET, pKi
records = [
    ("CCCn1c(=O)c2[nH]c(C34CCC(CCC(=O)O)(CC3)CC4)nc2n(CCC)c1=O", "Adenosine receptor A2b (Homo sapiens)", 7.05),
    ("CCCn1c(=O)c2nc(-c3cnn(Cc4c(F)cccc4F)c3)[nH]c2n(CCC)c1=O", "Adenosine receptor A2b (Homo sapiens)", 6.41),
]

1. CCn1c(=O)c2[nH]c(-c3ccco3)nc2n(CCCOC)c1=O
2. CC(=O)Nc1ncc(-c2ccncn2)c(-c2ccco2)n1
Endpoint returns the identifier whose pKi is numerically larger, either 1 or 2 . Give the label under which the chosen entry appears.
1

* * *

Target: Adenosine receptor A2b (Homo sapiens, UniProt P29275)
Sequence (P29275 whole entry): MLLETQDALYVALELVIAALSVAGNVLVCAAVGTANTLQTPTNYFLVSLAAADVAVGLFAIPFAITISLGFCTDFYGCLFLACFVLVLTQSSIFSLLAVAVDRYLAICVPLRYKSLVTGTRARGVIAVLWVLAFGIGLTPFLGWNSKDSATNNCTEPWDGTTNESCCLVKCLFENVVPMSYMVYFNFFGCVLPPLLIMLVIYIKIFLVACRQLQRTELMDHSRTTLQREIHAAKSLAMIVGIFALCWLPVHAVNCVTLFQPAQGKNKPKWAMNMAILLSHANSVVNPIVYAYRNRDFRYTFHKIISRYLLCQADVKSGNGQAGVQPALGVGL
Here is a set of molecules with reported Ki for Adenosine receptor A2b (Homo sapiens, UniProt P29275), compiled from the literature.
READOUT: Ki (nM)

# SMILES DATA, QUANTITATIVE RESULT
measured = [
    ("CCCn1c(=O)c2[nH]c(-c3cnn(Cc4cc(-c5ccc(Cl)cc5)on4)c3)nc2n(CCC)c1=O", 82),
    ("Cn1c(=O)c2[nH]c(-c3ccc(OCC(=O)NC4CCCC4)cc3)cc2n(C)c1=O", 79.4),
    ("CCCCn1c(=O)[nH]c2nc(-c3ccc(S(=O)(=O)O)cc3)[nH]c2c1=O", 70),
]

A. O=c1[nH]c2cc(-c3ccncn3)c(-c3ccco3)nc2[nH]1
B. Nc1nc(C(=O)NCc2cccc3cccnc23)c2ccccc2n1
C. CCn1c(=O)c2[nH]c(-c3ccc(OCC(=O)Nc4ccc(C#N)cc4)cc3)cc2n(CC)c1=O
Ascending by Ki, please: list the molecules accordingly. Labels, requested order.
A, C, B

* * *

Here is a set of compounds with reported Ki for Adenosine receptor A2b (Homo sapiens), compiled from the literature.
Molecular target: Adenosine receptor A2b (Homo sapiens)
Sequence (P29275 whole entry): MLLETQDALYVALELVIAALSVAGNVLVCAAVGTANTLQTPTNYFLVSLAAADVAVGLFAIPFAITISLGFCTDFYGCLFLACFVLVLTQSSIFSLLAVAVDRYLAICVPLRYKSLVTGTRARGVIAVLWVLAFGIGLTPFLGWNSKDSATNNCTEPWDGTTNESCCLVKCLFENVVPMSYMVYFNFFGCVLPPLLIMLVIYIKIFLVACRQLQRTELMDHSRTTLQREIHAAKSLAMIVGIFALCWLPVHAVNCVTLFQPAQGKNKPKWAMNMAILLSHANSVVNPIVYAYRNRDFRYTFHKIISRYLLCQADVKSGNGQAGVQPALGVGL
READOUT: Ki (nM)

# SMILES DATA, TARGET, READOUT, QUANTITATIVE RESULT
data = [
    ("CCCn1c(=O)c2[nH]c(-c3ccc(C)cc3)c(O)c2n(CCC)c1=O", "Adenosine receptor A2b (Homo sapiens)", "Ki", 89),
    ("CC(=O)Nc1ccc(-c2ccncc2)c(-c2ccco2)n1", "Adenosine receptor A2b (Homo sapiens)", "Ki", 7),
    ("CCCn1c(=O)c2nc(-c3cnn(Cc4cccc(OC)c4)c3)[nH]c2n(CCC)c1=O", "Adenosine receptor A2b (Homo sapiens)", "Ki", 34),
    ("COCCOc1ccc(N2CCN(CCn3c(=O)n(C)c4c3nc(N)n3nc(-c5nccs5)nc43)CC2)cc1F", "Adenosine receptor A2b (Homo sapiens)", "Ki", 5000),
]

I. CCCn1c(=O)[nH]c2[nH]c(-c3ccc4cc(C(=O)O)ccc4c3)nc2c1=O
II. CN1CCN(CC(=O)Nc2cc(-n3cccn3)nc(-c3ccco3)n2)CC1
Endpoint returns the identifier whose Ki is numerically larger, either I or II . Give the label under which the chosen entry appears.
II
(II: 35 nM, I: 13 nM)

* * *

pKi: −log10 of the molar value.
Here is a set of molecules with reported pKi for Adenosine receptor A2b (Homo sapiens, UniProt P29275), compiled from the literature.
READOUT: pKi

Below, 2 molecules whose answers are already recorded.
# MOLECULE, QUANTITATIVE RESULT
measured = [
    ("CCC(=O)Nc1cc(-c2ccc3c(c2)OCO3)nc(-c2ccc3c(c2)OCO3)n1", 5.78),
    ("CCCn1c(=O)c2nc(-c3cccc(O)c3O)[nH]c2n(CCC)c1=O", 6.90),
]

I. CC(C)Cn1c(=O)[nH]c2nc(-c3cnn(Cc4noc(-c5ccc(C(F)(F)F)cc5)n4)c3)[nH]c2c1=O
II. Cn1c(=O)c2[nH]c(-c3cnn(Cc4cccc(F)c4)c3)nc2n(C)c1=O
Endpoint returns the identifier whose pKi is numerically larger, either I or II . Give the label under which the chosen entry appears.
I

I. CCN(C(C)=O)c1ccc(OC)c2nc(NC(=O)c3ccc(NS(C)(=O)=O)cc3)sc12
II. CCCn1c(=O)c2nc(-c3ccc(Cl)cc3OC)[nH]c2n(CCC)c1=O
Decide: I or II , by lowest recorded pKi. Give the label under which the chosen entry appears.
II

1. CCN(C(C)=O)c1ccc(OC)c2nc(NC(=O)c3ccc(-n4cccn4)cc3)sc12
2. O=C(Cc1ccccc1)Nc1nc2ccccc2n2nc(-c3ccco3)nc12
Endpoint returns the identifier whose pKi is numerically larger, either 1 or 2 . Give the label under which the chosen entry appears.
1

a. CCCn1c(=O)c2c(nc(Cc3ccco3)n2C)n(Cc2ccco2)c1=O
b. CCN(C(C)=O)c1ccc(OC)c2nc(NC(=O)c3ccc(-n4ccnc4)cc3)sc12
Decide: a or b , by lowest recorded pKi. Give the label under which the chosen entry appears.
a

* * *

pKi: −log10 of the molar value.
Here is a set of compounds with reported pKi for Adenosine receptor A2b (Homo sapiens), compiled from the literature.

# COMPOUND, pKi
rows = [
    ("CC1=C(C(=O)OC(C)C)C(c2cnoc2)n2c(nc3ccccc32)N1 (racemic)", 7.53),
    ("Nc1nc2c(cnn2CCCc2ccccc2)c2nc(-c3ccco3)nn12", "< 5.00"),
]

As a next step, examine the compound that follows.
Lab note: need pKi for O=C(O)c1cnn(-c2nc(NC3CCCC3)c3ncn([C@@H]4O[C@H](CO)[C@@H](O)[C@H]4O)c3n2)c1 on Adenosine receptor A2b (Homo sapiens), anyone have it?
< 5.22
